experimental_system: T1, human EphB4 (Homo sapiens, UniProt P54760)
T1 construct: a protein of the extracellular region of each human Eph receptor fused with the SEAP protein and the His tag; made in house; host or cells: Expi293F cells
T1 sequence (P54760 16-539 limits assumed): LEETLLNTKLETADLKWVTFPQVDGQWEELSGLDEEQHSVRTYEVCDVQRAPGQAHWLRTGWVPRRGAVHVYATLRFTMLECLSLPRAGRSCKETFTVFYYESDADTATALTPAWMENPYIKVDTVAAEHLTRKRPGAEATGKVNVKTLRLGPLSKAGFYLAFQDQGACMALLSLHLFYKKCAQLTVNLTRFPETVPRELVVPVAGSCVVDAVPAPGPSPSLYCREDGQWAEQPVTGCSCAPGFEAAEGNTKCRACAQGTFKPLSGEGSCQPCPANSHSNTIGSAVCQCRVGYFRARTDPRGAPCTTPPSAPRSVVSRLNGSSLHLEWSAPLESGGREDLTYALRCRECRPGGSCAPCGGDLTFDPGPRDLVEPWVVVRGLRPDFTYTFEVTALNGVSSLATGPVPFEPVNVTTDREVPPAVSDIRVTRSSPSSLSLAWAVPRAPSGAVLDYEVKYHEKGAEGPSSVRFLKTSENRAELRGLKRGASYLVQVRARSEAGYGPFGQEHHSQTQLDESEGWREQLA
procedure_summary: Selectivity ELISA of humanized antibodies for human Eph receptor
Format: binding
run_parameters: coated protein 1 nM
Below, each entry is listed with its recorded hEphB4-SEAP-: absorbance at 450 nm, percentage with respect to hEphA4-SEAP-His as 100%.
State just the number; it will be interpreted in %.

Examples from the recorded data:
>  <molecule>
88 (antibody, V domains shown, constant regions without entry; synthetic humanized antibody light chain variable region sequence; synthetic humanized antibody heavy chain variable region sequence) VL: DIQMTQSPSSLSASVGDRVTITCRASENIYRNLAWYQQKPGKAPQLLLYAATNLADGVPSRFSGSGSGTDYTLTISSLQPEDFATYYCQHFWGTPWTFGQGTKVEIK VH: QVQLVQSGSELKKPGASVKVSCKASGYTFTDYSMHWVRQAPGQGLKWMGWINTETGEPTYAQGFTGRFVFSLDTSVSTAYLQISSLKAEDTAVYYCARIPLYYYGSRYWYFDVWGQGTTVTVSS

>  <measured_result>
6.1

$$$$
>  <molecule>
156 (antibody, V domains shown, synthetic humanized antibody heavy chain variable region sequence; synthetic humanized antibody light chain variable region sequence) VH: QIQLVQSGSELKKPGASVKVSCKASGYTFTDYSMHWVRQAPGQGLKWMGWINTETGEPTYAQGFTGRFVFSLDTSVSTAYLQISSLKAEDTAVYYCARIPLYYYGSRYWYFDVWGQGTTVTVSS VL: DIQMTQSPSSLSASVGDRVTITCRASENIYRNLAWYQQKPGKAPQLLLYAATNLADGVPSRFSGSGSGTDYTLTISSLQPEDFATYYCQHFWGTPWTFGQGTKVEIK

>  <measured_result>
5.6

$$$$
>  <molecule>
160 (antibody, V domains shown, synthetic humanized antibody heavy chain variable region sequence; synthetic humanized antibody light chain variable region sequence) VH: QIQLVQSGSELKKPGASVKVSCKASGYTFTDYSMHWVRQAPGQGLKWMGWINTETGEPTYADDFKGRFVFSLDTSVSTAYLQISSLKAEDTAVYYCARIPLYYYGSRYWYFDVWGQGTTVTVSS VL: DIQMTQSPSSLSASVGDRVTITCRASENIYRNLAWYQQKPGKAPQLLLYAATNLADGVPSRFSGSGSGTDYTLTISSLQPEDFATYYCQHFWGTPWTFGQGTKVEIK

>  <measured_result>
6.3

$$$$

Okay, now this molecule:
# return recorded hEphB4-SEAP-: absorbance at 450 nm, percentage with respect to hEphA4-SEAP-His as 100% for input 157 (antibody, V domains shown, synthetic humanized antibody heavy chain variable region sequence; synthetic humanized antibody light chain variable region sequence) VH: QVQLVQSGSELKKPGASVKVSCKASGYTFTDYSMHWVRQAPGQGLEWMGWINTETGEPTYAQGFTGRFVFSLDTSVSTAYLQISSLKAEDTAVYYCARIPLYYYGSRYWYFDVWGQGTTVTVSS VL: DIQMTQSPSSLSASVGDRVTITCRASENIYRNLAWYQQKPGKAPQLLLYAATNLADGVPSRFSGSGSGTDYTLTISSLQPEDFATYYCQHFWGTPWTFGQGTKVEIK
6.5

The origin of these recorded values is patent US10428140B2.
